# Tested on: SNB-75 CNS
# procedure-details: NCI tumour cell line growth inhibition, 48 h
Would you mind telling me the reported TGI of each entry?
Answers are plain numbers, in µM.

INSERT INTO assay_data (compound, target_or_system, endpoint_unit, reported) VALUES
  ('Cc1cc2c(C(=O)NC[C@H](C)c3ccccc3)c(O)c(O)cc2c(O)c1-c1c(C)cc2c(C(=O)NC[C@H](C)c3ccccc3)c(O)c(O)cc2c1O', 'SNB-75 CNS', 'µM', 1.98),
  ('COc1ccc(C2SC(N)=Nc3c2c(C)nn3C(=O)c2ccccc2O)cc1OC (stereo not given)', 'SNB-75 CNS', 'µM', 9.32),
  ('CCN1CCC(O)(c2ccc(Oc3ccc(Cl)cc3)cc2)C(C(=O)c2ccc(Oc3ccc(Cl)cc3)cc2)C1 (stereo not given)', 'SNB-75 CNS', 'µM', 26.2);

Could you now consider this next compound?
# TGI of OC1(C(Sc2cc(C(F)(F)F)cc(C(F)(F)F)c2)Sc2cc(C(F)(F)F)cc(C(F)(F)F)c2)C=CCCC1 (stereo not given) = 10.8

// provenance: PubChem BioAssay (NCI)
